# TEST PROTOCOL: yeast display, Sf9 membrane polyspecificity reagent, FACS + sequencing; frameworks hold sequencing errors
QUANTITY MEASURED: polyreactivity (PSR sort gate)

SEQUENCE RECORD: QVQLVESGGGLVQAGGSIRLSCAASGSTYGTNTMGWSRQAPGKERELVAGITSGGNTNYADSVKGRFTISRDNAKNTVYLQMNSLKPEDSAVYYCAPRYIYYYAYGYNYWGQGTHVTVSS
RESULT: high polyreactivity
--
SEQUENCE RECORD: QVQLVESGGGLVQAGGSLRLSCAASGITFTRYGMGWYRQAPGKERELVAVISSSGGRTYYADSVKGRFTISRDNAKNTVYLQMNSLKPEDTAVYYCATVRVLAKYRPKMDYWGQGTQVTVSS
RESULT: high polyreactivity

* * *

# TEST PROTOCOL: yeast display, Sf9 membrane polyspecificity reagent, FACS + sequencing; frameworks hold sequencing errors

SEQUENCE RECORD: QVQLQESGGGLVQAGGSLRLSCTASGTIYSTSAMGWYRQAPGKDREFVADIASGASTNYADSVKGRFTISRDNAKNTVYLQMNSLKPEDTAVYYCAAKRIRRRYKYDYWGQGTQVTVSS
polyreactivity (PSR sort gate): high polyreactivity
//
SEQUENCE RECORD: QVQLVESGAGLVQAGGSLRLSCAASGRNFQYYAMVWYRQAPGKERELVAAISSGGGTYYADSVKGRFTISRDNAKNTVYLQMNSLKPEDTAVYYCAARYVYHRGFDYWGQGTQVTVSS
polyreactivity (PSR sort gate): high polyreactivity
//
SEQUENCE RECORD: QVQLVESGGGLVQAGGSLRLSCAASGRIFKYYAMGWYRQAPWKERELVDTIRRSGGSTYYADSVKGRFTISRDNAKNTVYLQMNSLKPEDTAVYYCNARYLFLQAWLRPYRSDYWGQVTQVTVSS
polyreactivity (PSR sort gate): high polyreactivity
//
SEQUENCE RECORD: QVQLVESGGGLVQAGGSLRLSCAASGSTLGRYAMGWYRQAPGKERELVASITWSDDSTYYADSVKGRFTISRDNAKNTVYLQMNSLKPEDTAVYYCNAPPGTFQWQGHSDYWGQGTQVTVSS
polyreactivity (PSR sort gate): low polyreactivity
//
SEQUENCE RECORD: QVQLVESGGGLVQAGGSLRLSCAASGSIFYGNAMGRYRQAPGKERELVAGITGYGSPTYYADSVKGRFTISRDNAKNTVYLQMNSLKPEVTAVYYCARLTRTSRGMYDYWGQGTQVTVSS
polyreactivity (PSR sort gate): high polyreactivity
//
SEQUENCE RECORD: LVQLQESGGGLVQAGGSLRLSCAASGTISQGGYMGWYRQAPGKERELVASINVGGSTNYADSVKGRFTISRDNAKNTVYLQMNSLKPEDNAVYYCAVWGRNRLQLSYWGQGTQVTVSS
polyreactivity (PSR sort gate): low polyreactivity
//
SEQUENCE RECORD: QVQLVDSGGGLVQAGGSLRFSCAASGRTSNVYAMGWFRQAPGKERELVAAISARDGTTYNADSVKGRFTISRDNAKNTVYLQMNSLKPEDTAVYYCAAAVLSYADYYYDYEYWGQGTQVTVSS
polyreactivity (PSR sort gate): high polyreactivity
//
SEQUENCE RECORD: QVHLVESGGGLVQAGGSLRLSCAASGSIFSSNTMGWYRQATGKERELVAAISWSGGRTRYADSVKGRFTISRDNAKNTVYLQMNSLKPEDNAVYYCNAGTVASTLYDVRTHFDYWGQGTQVTVSS
polyreactivity (PSR sort gate): low polyreactivity
//
SEQUENCE RECORD: QVQLVESGGGLVQAGGSLRLSCAASGRIFANNAMGWYRQAPGKERELVAAINWSGSRTYYADSVKGRFTISRDNAKNTVYLQMNSLNPEDTAVYYCAAVGRWGVTGSHHDAYDYWGQGTQVTVSS
polyreactivity (PSR sort gate): high polyreactivity
//
SEQUENCE RECORD: QVQLVESGGGLVQAGGSLRLSCAASGSTFDIYAMGWYRQAPGKERELVAAISVSDVDTYYADSVKGRFTISRDNAKNTVYLQMNSLKPEDTAVYYCAAETPTHDEWGQGTQVTVSS
polyreactivity (PSR sort gate): high polyreactivity
//
SEQUENCE RECORD: QVQLVESGGGLVQAGGSLRLISAASGRIFDLYTMGWYRQAPGKERELVAAIRWSHGSTYYADSVKGRFTISRDNAKNTVYLQMNSLKPEDTAVYYCAADTRTSYYNDDYDYWGQGTQVTVSS
polyreactivity (PSR sort gate): low polyreactivity

* * *

# TEST PROTOCOL: yeast display, Sf9 membrane polyspecificity reagent, FACS + sequencing; frameworks hold sequencing errors

SEQUENCE RECORD: QVQLVESGGGLVQAGGSLRLSCAASGFTFYSNAMGWYRQAPGKERELGAAITWSTGNTYYADSVKGRFTISRDNAKNTVYLQMNSLKPEDTAVYYCAARSHTGYYPPSYYWGQATQVTVSS
polyreactivity (PSR sort gate): high polyreactivity
--
SEQUENCE RECORD: QVQLVESGGGLVHAGCSLRLSCAASGFTFKYYAMGWYRQPPGKEREIVAAISYSGGRTYYADSVKGRFTISRDNAKNTVYLQMNSLKPEDTAVYYCATDDVWKDGYWGQGTQVTVSS
polyreactivity (PSR sort gate): low polyreactivity
--
SEQUENCE RECORD: QVQLVESGGGLVQAGGSRRVSCAASGCIFGYNDMGWSRQAPGKDRELDASITWGGGRTRYADSVKGRFTISRDNAKNTVDLHMNSLKPEDTAVYYGAADKRSYSYVRPPRNQEDYWGQGTQVTVSS
polyreactivity (PSR sort gate): low polyreactivity
--
SEQUENCE RECORD: QFQLVESGGGLVQAGGSLRLSCAATGRTFYIYSMGWYRQAPGKERELVAAITSGGSTSYADSVKGRFTISRDNAKNTVYLQMNSLKPEDTAVYYCAADQYTYWFGYDYWGQGTQVTVSS
polyreactivity (PSR sort gate): low polyreactivity
--
SEQUENCE RECORD: QVQLVESGGGLVQAGGSLRLSCAASGLIFRAYGMGWYIQAPGKERELLAAITWNGGSTNYADSVKGRFTISRDNAKNTVYLQMNSLKPEDTAVYYCAARLAGRGSSSSRVVRTGGYWGQGTQVTVSS
polyreactivity (PSR sort gate): high polyreactivity
--
SEQUENCE RECORD: QVQLVESGGGLVQAGGSLRLSCAASGSIFAEYAMGWYRQAPGKERELVAAINGGGSTYYADSVKGRFTISRDNAKNTVYLEMNSLKPEDTAVYYCAAEKYTSWYSFWGYLYDYWGQGTQVTVSS
polyreactivity (PSR sort gate): high polyreactivity
--
SEQUENCE RECORD: QVQLVESGGGLVQAGGSLRLSSAASGRIFPGYSMGWYRQAPGKERELVASISRTGRTNYADSVKGRFTNSRDNAKNTVYLPMHSLKPEDTAVYYCAAGIVVTGYDYWGQGTQVSVSS
polyreactivity (PSR sort gate): low polyreactivity
--
SEQUENCE RECORD: QVQLVESGGGLVQAGGSLRLSCAASGSTFGRYAMGWYRQATGKEMELVAAITRSGGRTYYADSVKGRFTISRDNAKNNVYLQMNSLKPEDTAVYYCAAVGNLYYTSHWQYDYWGQGTQVTVSS
polyreactivity (PSR sort gate): high polyreactivity
--
SEQUENCE RECORD: KVQLVESGGGLVQAGGSLRLSCAASGLIFPAYTIGWYRQAPGKEREMVAAISRSGGSTYYADSVKGRFTISRDNAKYTVYLEMNSLKPEDTALYYCAAGYPGYDSYYKFYYWGQGTQVTVSS
polyreactivity (PSR sort gate): high polyreactivity
--
SEQUENCE RECORD: QVQLVESGGGLVQAGGSLRLSCAASGLIFRRNAMGWYRQAPGKERELVAAISRSSGSTYYADSVKGRFTISRDNAKNTVYLQMNSLKPEDTAVYYCAVHVWGTYGSWEYYYWGQGTQVTVSS
polyreactivity (PSR sort gate): high polyreactivity
--
SEQUENCE RECORD: QVQLEESGGGLVQPGGSLRLSCAASGRIFADYAMGWYRQAPGKERELVADIRQSGGRTYYADSVKGRFTISRDNAKNTVYLQMNSLKPEDTALYYCATDYGSWGDYSGKYDYWGQGTQVTVSS
polyreactivity (PSR sort gate): low polyreactivity
--
SEQUENCE RECORD: HVQLQESGGGLEQAGGSLRLSCAASGYISDIGTMGWYRQAPGKEREFVANIVVGSTTNYADSVKGRFTISRDNAKNTVYLQPESGRYRGVLLRGWLLAVGKFTYWGQGTQETVSS
polyreactivity (PSR sort gate): low polyreactivity
--
SEQUENCE RECORD: QDQHVESGGGLVQEGGSLRLSCASSSSTFEYYAMGWYRQPPGKERELVATISIDGRTNYADSVKGRFTISRDNAKNTVYLQMNSLKPEDTAVYYCAARPYWRHRYDYWVQGTQVTVSS
polyreactivity (PSR sort gate): low polyreactivity
--
SEQUENCE RECORD: QVQLVESGGGLVQAGGSLRLRCASSGGIFYLNAMGWYRQAPGKERELVAAITGTGGNTYYADSVKGRFTISRDNAKNTVYLQMNSLKPEDTGVYYCNVSSRRLRGLDYWGQGTQVSVSS
polyreactivity (PSR sort gate): low polyreactivity
--
SEQUENCE RECORD: QVQLVESGGGLVQAGGSLRLSCAASGSIITVNAMGWYRQAPGKEREFVAGITSIGGRTYYADSVMGRFTISRDNAKNTVYLQMYSLKPEDTAVYYCNKRSYRARYDYWGQGTQVTVSS
polyreactivity (PSR sort gate): high polyreactivity
--
SEQUENCE RECORD: QVQLVESGGGLVQAGGTLRLSCAPSGSTFVPNAMGWYRQAPGKERELVATITSSSSRTYYADSVKGRFTISRDNAKNTVYLQMNSLKPEDTAVYYCAADGRRVVARYDYWGQGTQVTVSS
polyreactivity (PSR sort gate): high polyreactivity
--
SEQUENCE RECORD: QVQLVESGGGLVQAGGSLRLSCAASGRTFTAYAMGWYRQAPGKERELVAAISVGGGSTYYADSVKGRFTISRDNAKNTVYLQMNSLKPEDTAVYYCAADRSYYLDGYDYWGQGTQVTVSS
polyreactivity (PSR sort gate): low polyreactivity
--
SEQUENCE RECORD: QVQLVESGGGLVQAGGSLRLSCAASGSIFSYYAMGWYRQAPGKERELVAAITIRGGRTYYADSVKGRFTISRDNAKNSVYLQMNSLKPEDTAVYYCAAETGHKQHGYTYEVSRRCYGYWGQGTQVTVSS
polyreactivity (PSR sort gate): low polyreactivity
--
SEQUENCE RECORD: QVQLVESGGGLVQAGGSLRLSCASSGRIFQYYVKGWYRQAPGKERELVAAITSGGGTKYADSVKGRFTISRDNENNTVYLQMNSLKPEDTAVYYCAAAWFDQYSRYDYWGQGTQVTVSS
polyreactivity (PSR sort gate): low polyreactivity
--
SEQUENCE RECORD: QVQLVESGGGLVQAVGSLRLSCAASGSTLVYYAMGWYRQAPGKERELVATITRSGGNTYYADSVKGRFTISRDNAKNTVYLQMNSLNPEDTAVYYWAARRLYGSQRGYWGQGTQVTVSS
polyreactivity (PSR sort gate): high polyreactivity
--
SEQUENCE RECORD: QVQLVESGGGLVQAGCSLRLICAASGSTFDPNAMGWYRQSPGKERQLVAVIDSGDGTTYYADSVKGRFTISRDNAKNTVYLQMNSLKPEDTAVYYCAVDESTSYYDDHEDYWGQGTQVTVSS
polyreactivity (PSR sort gate): low polyreactivity
